test system: Plasmodium falciparum; assay: microbe, parasite or virus in culture; format: functional, organism-based; conditions: Dd2, 72 h
Description: Antimalarial activity against chloroquine resistant Plasmodium falciparum Dd2 after 72 hrs by SYBP Green I dye staining
Entries and their measured IC50 follow.
// return numeric value only (unit: nM, not printed)

Returns the measured IC50 for the input molecule. Input: C=C[C@H]1CN2CC[C@H]1C[C@H]2[C@H](O)c1ccnc2ccccc12
207

More entries:
Bench note: what IC50 did C=C[C@H]1CN2CC[C@H]1C[C@@H]2[C@@H](O)c1ccnc2ccccc12 show?
82

IC50 lookup needed for O[C@@H](c1ccnc2ccccc12)[C@H]1C[C@@H]2CCN1C[C@@H]2/C=C/c1cccc(C(F)(F)F)c1 , thanks.
146

May I ask what IC50 has been recorded for COc1ccc2nccc([C@H](O)[C@H]3C[C@@H]4CCN3C[C@@H]4/C=C/c3ccc(C(F)(F)F)cc3)c2c1 ?
2350

---

IC50 values by entry
test system: Plasmodium falciparum; assay: microbe, parasite or virus in culture; format: functional, organism-based; conditions: Dd2, 72 h
Write the value in nM as a bare number.

In the examples that follow, each entry is paired with its recorded IC50.
So what does the record say about IC50 for COc1ccc2nccc([C@H](O)[C@H]3C[C@@H]4CCN3C[C@@H]4/C=C/c3ccc(-c4ccccc4)cc3)c2c1 ?
202

Look up IC50 for this compound: COc1ccc2nccc([C@@H](O)[C@H]3C[C@H]4CCN3C[C@@H]4/C=C/c3ccc(-c4ccccc4)cc3)c2c1
184

Fill blank: measured IC50 of the compound CCOC(=O)c1ccc(/C=C/[C@H]2CN3CC[C@H]2C[C@@H]3[C@@H](O)c2ccnc3ccc(OC)cc23)cc1 is ____.
203

Given the entry COc1ccc2nccc([C@H](O)[C@H]3C[C@@H]4CCN3C[C@@H]4/C=C/c3cccc(C(F)(F)F)c3)c2c1 , report its measured IC50.
182

New cases:
I'd like to know its IC50. The compound in question is O[C@@H](c1ccnc2ccccc12)[C@H]1C[C@@H]2CCN1C[C@@H]2/C=C/c1ccc(-c2ccccc2)cc1
243

Which IC50 value is on record for COc1ccc2nccc([C@@H](O)[C@H]3C[C@H]4CCN3C[C@@H]4/C=C/c3cccc(F)c3)c2c1 ?
733

---

tested on: Plasmodium falciparum; experiment: microbe, parasite or virus in culture; assay type: functional, organism-based; details: Dd2, 72 h
Observed property: pIC50
Remember, pIC50 is on a log scale: it is -log10 of the molar concentration.

Take a look at these entries with their results.
# input compound: CCOC(=O)c1ccc(/C=C/[C@H]2CN3CC[C@H]2C[C@@H]3[C@@H](O)c2ccnc3ccccc23)cc1 ; wanted: its pIC50
6.58

Return reported pIC50; argument: CCOC(=O)c1ccc(/C=C/[C@H]2CN3CC[C@@H]2C[C@@H]3[C@H](O)c2ccnc3ccc(OC)cc23)cc1
6.50

Which value of pIC50 has been reported for CCOC(=O)c1ccc(/C=C/[C@H]2CN3CC[C@H]2C[C@H]3[C@H](O)c2ccnc3ccccc23)cc1 in the records?
6.70

Give the measured pIC50 of O[C@H](c1ccnc2ccccc12)[C@@H]1C[C@@H]2CCN1C[C@@H]2/C=C/c1ccc(-c2ccccc2)cc1 .
6.75

Which measured pIC50 value corresponds to O[C@@H](c1ccnc2ccccc12)[C@H]1C[C@@H]2CCN1C[C@@H]2/C=C/c1ccc(C(F)(F)F)cc1 ?
6.01

Further cases:
Would you kindly share the measured pIC50 for COc1ccc2nccc([C@@H](O)[C@H]3C[C@H]4CCN3C[C@@H]4/C=C/c3ccc(C(F)(F)F)cc3)c2c1 ?
6.31

# query: pIC50 of entry C=C[C@H]1CN2CC[C@H]1C[C@H]2[C@H](O)c1ccnc2ccc(OC)cc12
6.49

Which pIC50 value is on record for C=C[C@H]1CN2CC[C@H]1C[C@@H]2[C@@H](O)c1ccnc2ccc(OC)cc12 ?
7.05

Given the compound O[C@H](c1ccnc2ccccc12)[C@@H]1C[C@@H]2CCN1C[C@@H]2/C=C/c1cccc(C(F)(F)F)c1 , what is its reported pIC50?
6.03

What value of pIC50 has been reported for the following compound? O[C@H](c1ccnc2ccccc12)[C@@H]1C[C@@H]2CCN1C[C@@H]2/C=C/c1ccc(C(F)(F)F)cc1
6.65

---

test system: Plasmodium falciparum; assay: microbe, parasite or virus in culture; type: functional, organism-based; settings: Dd2, 72 h
Observed property: IC50

Guide cases for IC50, answers given:
For the molecule shown here, COc1ccc2nccc([C@@H](O)[C@H]3C[C@H]4CCN3C[C@@H]4/C=C/c3ccc(F)cc3)c2c1 , give the reported IC50.
> 500 nM

Entry COc1ccc2nccc([C@@H](O)[C@H]3C[C@H]4CCN3C[C@@H]4/C=C/c3ccc(C)cc3)c2c1 has what IC50?
> 500 nM

Now for a further molecule.
Suppose we examine the molecule COc1ccc2nccc([C@@H](O)[C@H]3C[C@H]4CCN3C[C@@H]4/C=C/c3ccc4ccccc4c3)c2c1 ; what IC50 value has been reported?
> 1500 nM

---

tested on: Plasmodium falciparum; assay: microbe, parasite or virus in culture; type: functional, organism-based; details: Dd2, 72 h
Observed property: IC50

Use the examples below as a reference point.
Request the reported IC50 associated with COc1ccc2nccc([C@@H](O)[C@H]3C[C@H]4CCN3C[C@@H]4/C=C/c3ccc4c(c3)OCO4)c2c1
> 500 nM

# get_value(readout='IC50', item= COc1ccc(/C=C/[C@H]2CN3CC[C@@H]2C[C@@H]3[C@H](O)c2ccnc3ccc(OC)cc23)cc1 )
> 500 nM

Please turn your attention to the following entry.
Would you mind telling me what IC50 value was observed for COc1ccc2nccc([C@@H](O)[C@H]3C[C@H]4CCN3C[C@@H]4/C=C/c3ccccc3)c2c1 ?
> 500 nM
